- Protocol notes: Ratio of drug level in brain to plasma in CD-1 mouse at 10 mg/kg, ip by LC-MS/MS analysis
- Assay type: ADME, organism-based
- Set-up: dose 10 mg/kg, route intraperitoneal
- Experimental conditions: brain and plasma, read-out: BPR
Measured parameter: Kp

> print(dat)
                            compound.smiles  measured.parameter  readout.value
1  O=C(Nc1ccc(F)cn1)c1cc(Cl)cc(Oc2cncnc2)c1                  Kp           0.93

Proceed to the following item.
// returns reported Kp for input `Cc1csc(NC(=O)c2cc(F)cc(Oc3cncnc3)c2)n1`
0.99
